Target: UniProtKB P34998
Sequence (P34998 whole entry): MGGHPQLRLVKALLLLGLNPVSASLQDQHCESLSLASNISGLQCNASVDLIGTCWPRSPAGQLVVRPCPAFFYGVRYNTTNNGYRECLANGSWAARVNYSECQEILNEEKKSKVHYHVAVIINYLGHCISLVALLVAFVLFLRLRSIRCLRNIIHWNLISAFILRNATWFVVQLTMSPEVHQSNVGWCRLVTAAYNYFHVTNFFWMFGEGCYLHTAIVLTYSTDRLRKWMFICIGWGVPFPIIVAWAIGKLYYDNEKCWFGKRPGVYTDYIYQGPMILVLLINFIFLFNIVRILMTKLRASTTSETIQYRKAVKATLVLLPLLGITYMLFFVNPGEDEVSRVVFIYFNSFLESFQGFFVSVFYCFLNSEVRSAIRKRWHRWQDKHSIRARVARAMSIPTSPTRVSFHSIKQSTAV
Experiment: Displacement of [125I]Tyr-o-CRF from CRF1 receptor in IMR32 cells
observationType: Ki (nM)

A selection of reference data follows.
CCc1nc(Oc2cc(C)ccn2)c(CC)nc1N[C@@H]1c2ccccc2C[C@@H]1OC(C)=O; 2020
CCO[C@H]1Cc2ccccc2[C@H]1Nc1nc(CC)c(Oc2ncccc2C)nc1CC; 509
CCO[C@H]1Cc2ccccc2[C@@H]1Nc1nc(CC)c(Oc2cc(C)ccn2)nc1CC; 5470
CCO[C@H]1Cc2ccccc2[C@H]1Nc1nc(CC)c(Oc2cccc(C)n2)nc1CC; 472

A. CCc1nc(NC(CC)CC)c(CC)nc1Nc1cccc(C)n1
B. CCc1nc(N[C@@H]2c3ccccc3C[C@@H]2OCCF)c(CC)nc1Nc1ncc(Cl)cc1Cl
C. CCc1nc(NC(CC)CC)c(CC)nc1Nc1ncc(Cl)cc1Cl
Req: Reorder the items by Ki, least to greatest. The reply should contain the labels ordered as requested.
Resp: C, B, A
(C: 115 nM, B: 1730 nM, A: 3380 nM)
